studySystem: CDK2/cyclin A2 (Homo sapiens)
experimentNotes: CDK2/cyclin A2 Kinase-Glo Plus luminescence kinase assay
In plain terms, low IC50, meaning strictly below 600 nM, gives met, and everything else gives not met.

Criterion: IC50 strictly below 600 nM. Is it met by CC(=O)OCC(CSc1nc2c3cnn(C(=O)CNc4ccc(C)cc4)c3ncn2n1)OC(C)=O (centres unmarked) ?
not met

Repeat for the following compound: CC(=O)OCCSc1nc2c3cnn(C(=O)CNc4ccc(C)cc4)c3ncn2n1
met

Repeat for the following compound: Cc1ccc(NCC(=O)n2ncc3c2ncn2nc(SCC(O)CO)nc32)cc1 (centres unmarked)
met

Repeat for the following compound: Cc1ccc(NCC(=O)n2ncc3c(=N)n(N[C@@H]4O[C@H](CO)[C@@H](O)[C@H](O)[C@H]4O)cnc32)cc1
not met
